The measurements presented in this section are drawn from paper PMC7724679.

Tested on: Influenza A virus (IAV, Puerto Rico/8/1934(H1N1))
Experiment: Antiviral assay, IAV viral RNA in supernatant by RT-qPCR, Calu-3 cells
Assay type: cell-based
Conditions: read-out: IC50, antiviral activity against IAV
attribute measured: IC50 (µM)
Form entry: value (µM) — number only.

Provide IC50 value for the following molecule: `COc1cc2ncnc(Nc3cccc(Cl)c3)c2cc1OC`
0.043
